Each recorded value in this set is attributed to paper PMC3684613.

Reported pEC50 is given for each of the following compounds.
system: P. falciparum 3D7; assay: DAPI stain fluorescent high content imaging assay, P. falciparum 3D7 (confirmatory screen, Avery); details: Plasmodium falciparum, 3D7, read-out: EC50_nM
Note on units: pEC50 is unitless, being -log10 of a concentration expressed in mol/L.

Some compounds with known pEC50 results, for comparison:
CCOc1ccc(-n2cc(-c3ccccc3)c3c(SCc4cc(C)ccc4C)ncnc32)cc1 [MMV085471]; 5.77
CN1CCN(c2c3c(c(C#N)c4nc5ccccc5n24)CCC3)CC1 [MMV008127]; 5.40

## Input Quick one: pEC50 of COc1ccc(C2=C(c3ccc(OC)cc3)C3(c4ccccc4)C(=O)C2(c2ccccc2)C2C(=O)N(c4ccc(C)cc4)C(=O)C23)cc1 (stereo not drawn) [MMV666101] ?
## Output 6.83
